target: Pim2 kinase (Homo sapiens); assay: KinaseGlo Pim2 ATP depletion assay; format: biochemical; conditions: Table 4, 5 nM PIM2, 4 μM ATP, 10 μM BAD peptide
Sequence (Q9P1W9 whole entry): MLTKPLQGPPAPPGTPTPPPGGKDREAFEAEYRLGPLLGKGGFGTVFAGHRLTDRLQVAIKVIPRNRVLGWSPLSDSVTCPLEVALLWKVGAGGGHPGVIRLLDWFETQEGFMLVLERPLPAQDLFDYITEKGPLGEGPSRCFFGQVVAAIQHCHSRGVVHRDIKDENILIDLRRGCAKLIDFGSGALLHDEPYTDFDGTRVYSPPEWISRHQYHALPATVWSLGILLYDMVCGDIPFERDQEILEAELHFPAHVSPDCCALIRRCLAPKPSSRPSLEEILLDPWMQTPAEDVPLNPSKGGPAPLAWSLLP
Property Name: IC50 (nM)

Quickly give me recorded IC50 for C[C@H]1C[C@@H](c2ccncc2NC(=O)c2nc(-c3nc(Cl)ccc3F)ccc2N)C[C@@H](O)[C@]1(C)O 4.6

Quickly give me recorded IC50 for C[C@H]1C[C@@H](c2ccncc2NC(=O)c2cccc(-c3c(F)cccc3F)n2)C[C@@H](O)[C@]1(C)O 3.4

(I) C[C@H]1C[C@@H](c2ccncc2NC(=O)c2nc(-c3nc(F)ccc3F)ccc2N)C[C@@H](O)[C@]1(C)O
(II) CC[C@]1(O)[C@H](C)C[C@H](c2ccncc2NC(=O)c2nc(-c3c(F)cccc3F)ncc2N)C[C@@H]1O
Could you point out whether the larger IC50 belongs to I or to II ? Indicate which entry you chose by stating its label. II

###

biological target: Pim1 kinase (Homo sapiens, UniProt P11309); test: Pim1 AlphaScreen assay (high ATP)
Sequence (P11309 whole entry): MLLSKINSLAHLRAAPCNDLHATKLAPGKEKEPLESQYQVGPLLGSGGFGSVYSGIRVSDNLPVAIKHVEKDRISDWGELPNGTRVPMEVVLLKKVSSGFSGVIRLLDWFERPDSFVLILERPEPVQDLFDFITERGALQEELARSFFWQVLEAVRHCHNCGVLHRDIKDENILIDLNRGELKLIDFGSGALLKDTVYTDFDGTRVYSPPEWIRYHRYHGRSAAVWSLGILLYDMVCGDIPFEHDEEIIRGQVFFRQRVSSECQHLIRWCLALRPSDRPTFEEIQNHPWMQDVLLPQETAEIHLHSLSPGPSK
Property Name: IC50 (nM)

Quickly give me recorded IC50 for C[C@@H]1C[C@H](c2ccncc2NC(=O)c2ccc(F)c(-c3c(F)cc(C4(O)COC4)cc3F)n2)C[C@H](O)[C@@]1(C)O 39.1

(I) Cc1cc(F)c(-c2nc(C(=O)Nc3cnccc3[C@H]3C[C@@H](N)[C@](C)(O)[C@@H](C)C3)c(N)cc2F)c(F)c1
(II) COc1cc(F)c(-c2nc(C(=O)Nc3cnccc3[C@H]3C[C@@H](N)[C@](C)(O)[C@@H](C)C3)ccc2F)c(F)c1
Dear colleague, could you let me know whether I or II has the lower recorded IC50? Thanks. Indicate which entry you chose by stating its label. I

###

test system: KMS11 (human myeloma cell line); assay: Cell proliferation assay (CellTiter-Glo) in KMS11 cells; format: cell-based; conditions: KMS-11, 72 h, Table 5, 3 days, read-out: KMS11-luc EC50
pEC50: −log10 of the molar value.
Property Name: pEC50

Below, 8 compounds whose answers are already recorded.
Quickly give me recorded pEC50 for CCc1cc(F)c(-c2nc(C(=O)Nc3cnccc3[C@H]3C[C@@H](N)[C@](C)(O)[C@@H](C)C3)ccc2F)c(F)c1 [Example 2] 7.23

Quickly give me recorded pEC50 for C[C@H]1C[C@@H](c2ccncc2NC(=O)c2ccc(F)c(-c3c(F)cc(COC4CCOCC4)cc3F)n2)C[C@@H](N)[C@]1(C)O [Example 92] 7.04

Quickly give me recorded pEC50 for C[C@H]1C[C@@H](c2ccncc2NC(=O)c2ccc(F)c(-c3c(F)cc(C4(O)COC4)cc3F)n2)C[C@@H](O)[C@]1(C)O [Example 76] 5.94

Quickly give me recorded pEC50 for CC(=O)c1ccc(F)c(-c2ccc(N)c(C(=O)Nc3cnccc3[C@H]3C[C@@H](O)[C@](C)(O)[C@@H](C)C3)n2)n1 [Example 133] 5.27

Quickly give me recorded pEC50 for CCN1CCC(c2cc(F)c(-c3nc(C(=O)Nc4cnccc4[C@H]4C[C@@H](O)[C@](C)(O)[C@@H](C)C4)ccc3F)c(F)c2)CC1 [Example 115] 6.51

Quickly give me recorded pEC50 for C[C@H]1C[C@@H](c2ccncc2NC(=O)c2nc(-c3c(F)cc(C4(F)CCOCC4)cc3F)sc2N)C[C@@H](N)[C@]1(C)O [Example 84] 6.46

Quickly give me recorded pEC50 for C[C@H]1C[C@@H](c2ccncc2NC(=O)c2ccc(F)c(-c3c(F)cc(C4(F)CCOCC4)cc3F)n2)C[C@@H](O)[C@]1(C)O [Example 113] 6.61

Quickly give me recorded pEC50 for C[C@H]1C[C@@H](c2ccncc2NC(=O)c2ccc(F)c(-c3c(F)cc(C4CCS(=O)(=O)CC4)cc3F)n2)C[C@@H](O)C1(C)O (stereo in doubt) [Example 120] 6.14

(A) C[C@@H]1C[C@H](c2ccncc2NC(=O)c2ccc(F)c(-c3c(F)cccc3F)n2)C[C@H](O)[C@]1(O)CF [Example 29]
(B) C[C@H]1C[C@@H](c2ccncc2NC(=O)c2nc(-c3c(F)cccc3F)ccc2N)C[C@@H](O)[C@@]1(O)CF [Example 18]
Dear colleague, could you let me know whether A or B has the lower recorded pEC50? Thanks. Indicate which entry you chose by stating its label. A
(A: 5.49, B: 6.15)

(A) C[C@H]1C[C@@H](c2ccncc2NC(=O)c2ccc(F)c(-c3c(F)cc(OC4CCOCC4)cc3F)n2)C[C@@H](N)[C@]1(C)O [Example 65]
(B) C[C@H]1C[C@@H](c2ccncc2NC(=O)c2ccc(F)c(-c3c(F)cc(CN4CCCC4=O)cc3F)n2)C[C@@H](O)[C@]1(C)O [Example 77]
Could you point out whether the larger pEC50 belongs to A or to B ? Indicate which entry you chose by stating its label. A
(A: 7.42, B: 6.87)
